- system tested: UniProtKB O88693
- assay summary: In vivo inhibition of GCS in C57 mouse assessed as reduction in brain GlcCer d18:1/18:0 concentration measured after 8 hrs by LC-MS/MS method

{"compound string": "O=C(N1CCN2CCC1CC2)n1nc(-c2ccc(F)cc2)c2c1COCC2", "EC50 (nM)": 320}

---

- Test system: rat P-gp
- assay summary: Substrate activity at rat P-gp assessed as apparent permeability at 1 uM
- Assay type: ADME
- settings: not told
Item-by-item account of Papp at 1 µM

{"compound": "COc1ccc(-n2nc(C(=O)N3CCNCC(CO)C3)c3c2CCOC3)cc1 (racemic)", "Papp at 1 µM [×10⁻⁶ cm/s]": 6}
{"compound": "O=C(N1CCN2CCC1CC2)n1nc(-c2ccc(F)c(Cl)c2)c2c1COCC2", "Papp at 1 µM [×10⁻⁶ cm/s]": 24}
{"compound": "O=C(c1nn(-c2ccc(F)c(Cl)c2)c2c1COCC2)N1CCN2CCC1CC2", "Papp at 1 µM [×10⁻⁶ cm/s]": 32}
{"compound": "COc1ccc(-n2nc(C(=O)N3CCN4CCC3CC4)c3c2CCOC3)cc1", "Papp at 1 µM [×10⁻⁶ cm/s]": 31}

---

pIC50: −log10 of the molar value.
Below are pIC50 values recorded for UniProt P10635.
Sequence (P10635 whole entry): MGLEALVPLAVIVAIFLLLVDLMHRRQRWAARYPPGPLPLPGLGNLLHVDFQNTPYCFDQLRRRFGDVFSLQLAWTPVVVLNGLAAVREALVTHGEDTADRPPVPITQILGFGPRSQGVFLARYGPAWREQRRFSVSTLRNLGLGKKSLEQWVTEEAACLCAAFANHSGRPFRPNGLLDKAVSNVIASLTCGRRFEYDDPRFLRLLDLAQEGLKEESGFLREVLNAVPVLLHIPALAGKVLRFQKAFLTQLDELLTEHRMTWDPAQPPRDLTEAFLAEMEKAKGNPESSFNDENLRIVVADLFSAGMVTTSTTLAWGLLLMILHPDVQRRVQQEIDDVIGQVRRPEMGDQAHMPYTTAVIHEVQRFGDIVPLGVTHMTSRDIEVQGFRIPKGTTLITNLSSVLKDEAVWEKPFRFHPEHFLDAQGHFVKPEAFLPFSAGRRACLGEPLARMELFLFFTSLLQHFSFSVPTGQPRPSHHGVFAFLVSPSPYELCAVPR

{"compound string": "Cl.O=C(N1CCN2CCC1CC2)n1nc(-n2cc(C(F)(F)F)cn2)c2c1COCC2", "pIC50": "< 4.30"}
{"compound string": "O=C(N1CCN2CCC1CC2)n1nc(-c2ccc(F)cc2)c2c1COCC2", "pIC50": "< 4.30"}

---

- system tested: Ceramide glucosyltransferase (Mus musculus, UniProt O88693)
- Sequence (O88693 whole entry): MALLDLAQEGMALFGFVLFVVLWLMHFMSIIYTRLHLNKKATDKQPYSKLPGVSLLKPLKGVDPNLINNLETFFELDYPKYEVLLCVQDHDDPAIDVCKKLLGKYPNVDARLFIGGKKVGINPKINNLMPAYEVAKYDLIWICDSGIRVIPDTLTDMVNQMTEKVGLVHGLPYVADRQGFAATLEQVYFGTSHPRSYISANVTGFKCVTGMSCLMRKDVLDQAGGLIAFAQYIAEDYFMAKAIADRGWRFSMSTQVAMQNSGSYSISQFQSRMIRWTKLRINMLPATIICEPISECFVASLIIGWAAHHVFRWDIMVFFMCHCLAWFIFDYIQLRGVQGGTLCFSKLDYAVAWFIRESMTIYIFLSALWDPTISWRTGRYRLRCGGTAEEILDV
- assay summary: Inhibition of GCS in mouse fibroblast
Each entry below carries its recorded IC50.

{"compound string": "Cl.O=C(N1CCN2CCC1CC2)n1nc(-n2cc(C(F)(F)F)cn2)c2c1COCC2", "system tested": "Ceramide glucosyltransferase (Mus musculus, UniProt O88693)", "measurement units": "nM", "IC50": 17}
{"compound string": "O=C(N1CCN2CCC1CC2)n1nc(-c2ccc(F)cc2)c2c1COCC2", "system tested": "Ceramide glucosyltransferase (Mus musculus, UniProt O88693)", "measurement units": "nM", "IC50": 21}

---

- assay summary: Unbound fraction in human plasma
- Assay type: ADME, cell-free
fraction unbound: recorded values
measure: fraction unbound

{"compound string": "Cl.O=C(N1CCN2CCC1CC2)n1nc(-n2cc(C(F)(F)F)cn2)c2c1COCC2", "assay value": 0.03}
{"compound string": "O=C(N1CCN2CCC1CC2)n1nc(-c2ccc(F)cc2)c2c1COCC2", "assay value": 0.03}
